Assignment: determine reported pKi for the given compounds.
EXPERIMENTAL_TARGET: β-catenin/BCL9 PPI (Homo sapiens (Human), UniProt P35222)
Sequence (P35222 whole entry): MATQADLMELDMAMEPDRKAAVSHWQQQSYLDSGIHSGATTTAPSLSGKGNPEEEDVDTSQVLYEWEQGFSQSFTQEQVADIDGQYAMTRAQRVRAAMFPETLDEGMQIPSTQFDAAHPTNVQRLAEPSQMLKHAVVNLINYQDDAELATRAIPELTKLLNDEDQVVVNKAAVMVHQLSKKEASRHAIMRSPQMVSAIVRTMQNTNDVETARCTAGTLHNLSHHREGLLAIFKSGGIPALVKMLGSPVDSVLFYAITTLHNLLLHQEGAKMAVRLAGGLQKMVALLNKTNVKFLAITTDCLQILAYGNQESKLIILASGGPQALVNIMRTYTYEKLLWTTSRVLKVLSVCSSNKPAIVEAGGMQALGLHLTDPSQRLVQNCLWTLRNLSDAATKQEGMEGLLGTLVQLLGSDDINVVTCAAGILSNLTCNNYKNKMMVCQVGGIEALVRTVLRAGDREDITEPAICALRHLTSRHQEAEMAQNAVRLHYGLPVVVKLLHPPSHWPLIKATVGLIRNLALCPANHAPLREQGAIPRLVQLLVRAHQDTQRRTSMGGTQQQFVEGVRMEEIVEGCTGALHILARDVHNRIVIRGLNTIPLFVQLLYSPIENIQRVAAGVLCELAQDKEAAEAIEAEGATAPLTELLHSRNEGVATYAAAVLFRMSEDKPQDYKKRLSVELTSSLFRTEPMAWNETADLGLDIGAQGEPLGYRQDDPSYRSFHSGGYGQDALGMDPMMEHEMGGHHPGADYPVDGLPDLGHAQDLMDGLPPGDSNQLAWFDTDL
ASSAY_INFO: AlphaScreen competitive inhibition assay of β-catenin/BCL9 PPI
EXPERIMENTAL_PARAMETERS: derived from IC50; mean ± standard deviation (n = 3); read-out: Ki ± SD
pKi: −log10 of the molar value. Structures can show the parent of a compound that is named as a salt.

Worked set:
- COMPOUND: "CNC(=O)c1ccc(N2CCNCC2)cc1OC1CCN(C(=O)c2ccc(O[C@H]3CCNC3)c(C3CCC(C(C)(C)C)CC3)c2)CC1 (stereo in doubt) [Compound 42, dihydrochloride]"
  RECORDED_VALUE: "≥ 4.30"
- COMPOUND: "CC(C)(C)C1CCC(c2cc(C(=O)N3CCC(Oc4cc(N5CCNCC5)ccc4C(=O)O)CC3)ccc2O[C@H]2CCNC2)CC1 (stereo in doubt) [Compound 40, dihydrochloride]"
  RECORDED_VALUE: "~4.08"
- COMPOUND: "O=C(c1ccc(O[C@H]2CCNC2)c(-c2ccccc2)c1)N1CCC(Oc2cc(F)cc(N3CCNCC3)c2)CC1 [Compound 8, dihydrochloride]"
  RECORDED_VALUE: "≥ 4.30"
- COMPOUND: "CC(C)(C)C1CCC(c2cc(C(=O)N3CCC(Oc4cc(N5CCNCC5)cc(C(F)(F)F)c4)CC3)ccc2O[C@H]2CCNC2)CC1 (stereo in doubt) [Compound 31, dihydrochloride]"
  RECORDED_VALUE: "> 5.30"
- COMPOUND: "O=C(c1ccc(O[C@H]2CCNC2)c(-c2ccc(C(F)(F)F)cc2)c1)N1CCC(Oc2cc(F)cc(N3CCNCC3)c2)CC1 [Compound 9, dihydrochloride]"
  RECORDED_VALUE: "≥ 4.70"

Look at each compound and report its pKi.
1. CC(C)(C)C1CCC(c2cc(C(=O)N3CCC(Oc4cc(N5CCNCC5)cc(F)c4F)CC3)ccc2O[C@H]2CCNC2)CC1 (stereo in doubt) [Compound 35, dihydrochloride]
2. Cn1cc(-c2cc(C(=O)N3CCC(Oc4cc(F)cc(N5CCNCC5)c4)CC3)ccc2O[C@H]2CCNC2)cn1 [Compound 13, dihydrochloride]
3. CC(C)(C)C1CCC(c2cc(C(=O)N3CCC(Oc4cc(F)cc(N5CCNCC5)c4)CC3)ccc2O[C@H]2CCNC2)CC1 (stereo in doubt) [Compound 19, dihydrochloride]
4. O=C(c1ccc(O[C@H]2CCNC2)c(-c2ccc3ccccc3c2)c1)N1CCC(Oc2cc(F)cc(N3CCNCC3)c2)CC1 [Compound 12, dihydrochloride]
5. O=C(c1ccc(O[C@H]2CCNC2)c(-c2cn[nH]c2)c1)N1CCC(Oc2cc(F)cc(N3CCNCC3)c2)CC1 [Compound 17, dihydrochloride]
6. CC(O)C(=O)N1CCC(c2cc(C(=O)N3CCC(Oc4cc(F)cc(N5CCNCC5)c4)CC3)ccc2O[C@H]2CCNC2)CC1 (some centres unmarked) [Compound 23, dihydrochloride]

Result:
1: ≥ 5.30; 2: ≥ 5.00; 3: ≥ 5.30; 4: ≥ 5.30; 5: ≥ 5.70; 6: ≥ 4.30

###

EXPERIMENTAL_TARGET: β-catenin/BCL9 PPI (Homo sapiens (Human))
ASSAY_INFO: AlphaScreen competitive inhibition assay of β-catenin/BCL9 PPI
EXPERIMENTAL_PARAMETERS: derived from IC50; mean ± standard deviation (n = 3); read-out: Ki ± SD
Where a name gives a salt, the structure may show the parent alone.
READOUT_NAME: Ki

Look at each compound and report its Ki.
1. O=C(c1ccc(O[C@H]2CCNC2)c(C2CCCCC2)c1)N1CCC(Oc2cc(F)cc(N3CCC4(CCNC4)C3)c2)CC1 (stereo partly drawn)
2. O=C(c1ccc(O[C@H]2CCNC2)c(C2CCCCC2)c1)N1CCC(Oc2cc(F)cc(N3CC4(CCNCC4)C3)c2)CC1
3. CC(C)(C)C1CCC(c2cc(C(=O)N3CCC(Oc4ccc(F)c(N5CCNCC5)c4)CC3)ccc2O[C@H]2CCNC2)CC1 (stereo in doubt) [Compound 33, dihydrochloride]

Result:
1: ≤ 40 µM; 2: > 84 µM; 3: ≤ 10 µM

###

EXPERIMENTAL_TARGET: β-catenin/BCL9 PPI (Homo sapiens (Human), UniProt P35222)
ASSAY_INFO: AlphaScreen competitive inhibition assay of β-catenin/BCL9 PPI
EXPERIMENTAL_PARAMETERS: derived from IC50; mean ± standard deviation (n = 3); read-out: Ki ± SD
Counter-ions that a name gives are not always drawn.
Assignment: determine reported Ki for the given compounds.

Worked set:
- COMPOUND: "O=C(c1ccc(O[C@H]2CCNC2)c(C2CCCCC2)c1)N1CCC(Oc2cc(F)cc(N3CCC4(CC3)CNC4)c2)CC1"
  Ki: "> 84 µM"
- COMPOUND: "O=C(c1ccc(O[C@H]2CCNC2)c(-c2ccc3cn[nH]c3c2)c1)N1CCC(Oc2cc(F)cc(N3CCNCC3)c2)CC1 [Compound 15, dihydrochloride]"
  Ki: "≤ 20 µM"
- COMPOUND: "CC(C)(C)C1CCC(c2cc(C(=O)N3CCC(Oc4cccc(N5CCNCC5)c4)CC3)ccc2O[C@H]2CCNC2)CC1 (stereo in doubt) [Compound 38, dihydrochloride]"
  Ki: "≤ 20 µM"
- COMPOUND: "CN(C)C(=O)c1ccc(N2CCNCC2)cc1OC1CCN(C(=O)c2ccc(O[C@H]3CCNC3)c(C3CCC(C(C)(C)C)CC3)c2)CC1 (stereo in doubt) [Compound 43, dihydrochloride]"
  Ki: "~81 µM"

Next item in the queue.
Problem: Sample O=C(c1ccc(O[C@H]2CCNC2)c(-c2ccc3ccsc3c2)c1)N1CCC(Oc2cc(F)cc(N3CCNCC3)c2)CC1 [Compound 11, dihydrochloride] — what was its Ki?
Result: ≤ 5 µM

###

EXPERIMENTAL_TARGET: β-catenin/BCL9 PPI (Homo sapiens (Human), UniProt P35222)
ASSAY_INFO: AlphaScreen competitive inhibition assay of β-catenin/BCL9 PPI
EXPERIMENTAL_PARAMETERS: mean ± standard deviation (n = 3)
pIC50: −log10 of the molar value. Structures can show the parent of a compound that is named as a salt.
READOUT_NAME: pIC50

Worked set:
- MOLECULE: "O=C(c1ccc(O[C@H]2CCNC2)c(-c2ccc3[nH]cnc3c2)c1)N1CCC(Oc2cc(F)cc(N3CCNCC3)c2)CC1 [Compound 16, dihydrochloride]"
  EXPERIMENTAL_TARGET: "β-catenin/BCL9 PPI (Homo sapiens (Human), UniProt P35222)"
  pIC50: "≥ 4.30"
- MOLECULE: "O=C(c1ccc(O[C@H]2CCNC2)c(-c2ccc3ccccc3c2)c1)N1CCC(Oc2cc(F)cc(N3CCNCC3)c2)CC1 [Compound 12, dihydrochloride]"
  EXPERIMENTAL_TARGET: "β-catenin/BCL9 PPI (Homo sapiens (Human), UniProt P35222)"
  pIC50: "≥ 5.30"
- MOLECULE: "O=C(c1ccc(O[C@H]2CCNC2)c(-c2ccc(C(F)(F)F)cc2)c1)N1CCC(Oc2cc(F)cc(N3CCNCC3)c2)CC1 [Compound 9, dihydrochloride]"
  EXPERIMENTAL_TARGET: "β-catenin/BCL9 PPI (Homo sapiens (Human), UniProt P35222)"
  pIC50: "≥ 4.70"

Look at each molecule and report its pIC50.
1. O=C(c1ccc(O[C@H]2CCNC2)c(-c2ccc3ccsc3c2)c1)N1CCC(Oc2cc(F)cc(N3CCNCC3)c2)CC1 [Compound 11, dihydrochloride]
2. CNC(=O)c1ccc(N2CCNCC2)cc1OC1CCN(C(=O)c2ccc(O[C@H]3CCNC3)c(C3CCC(C(C)(C)C)CC3)c2)CC1 (stereo in doubt) [Compound 42, dihydrochloride]
3. O=C(c1ccc(O[C@H]2CCNC2)c(N2CCCCC2)c1)N1CCC(Oc2cc(F)cc(N3CCNCC3)c2)CC1 [Compound 25, dihydrochloride]
4. CC(C)(C)C1CCC(c2cc(C(=O)N3CCC(Oc4cc(N5CCNCC5)ccc4Cl)CC3)ccc2O[C@H]2CCNC2)CC1 (stereo in doubt) [Compound 36, dihydrochloride]

Result:
≥ 5.30
≥ 4.30
≥ 4.22
≥ 5.30

###

Assignment: determine reported pKi for the given compounds.
EXPERIMENTAL_TARGET: β-catenin/BCL9 PPI (Homo sapiens (Human))
ASSAY_INFO: AlphaScreen competitive inhibition assay of β-catenin/BCL9 PPI
EXPERIMENTAL_PARAMETERS: derived from IC50; mean ± standard deviation (n = 3); read-out: Ki ± SD
pKi: −log10 of the molar value. Structures can show the parent of a compound that is named as a salt.

- COMPOUND: "O=C(c1ccc(O[C@H]2CCNC2)c(N2CCC(C(F)(F)F)CC2)c1)N1CCC(Oc2cc(F)cc(N3CCNCC3)c2)CC1 [Compound 26, dihydrochloride]"
  pKi: "≥ 4.00"
- COMPOUND: "CC(C)(O)C1CCN(c2cc(C(=O)N3CCC(Oc4cc(F)cc(N5CCNCC5)c4)CC3)ccc2O[C@H]2CCNC2)CC1"
  pKi: "≥ 4.30"
- COMPOUND: "CC(C)(C)C1CCC(c2cc(C(=O)N3CCC(Oc4cc(N5CCNCC5)ccc4F)CC3)ccc2O[C@H]2CCNC2)CC1 (stereo in doubt) [Compound 34, dihydrochloride]"
  pKi: "≥ 5.00"
- COMPOUND: "CC(C)(C)[C@H]1CC[C@H](c2cc(C(=O)N3CCC(Oc4cc(N5CCNCC5)ccc4C#N)CC3)ccc2O[C@H]2CCNC2)CC1"
  pKi: "≥ 5.40"

Look at each compound and report its pKi.
1. O=C(c1ccc(O[C@H]2CCNC2)c(C2CCCCC2)c1)N1CCC(Oc2cc(F)cc(N3CCNCC3)c2)CC1 [Compound 1, dihydrochloride]
2. O=C(c1ccc(O[C@H]2CCNC2)c(C2CCOCC2)c1)N1CCC(Oc2cc(F)cc(N3CCNCC3)c2)CC1 [Compound 20, dihydrochloride]
3. CC1(O)CCN(c2cc(C(=O)N3CCC(Oc4cc(F)cc(N5CCNCC5)c4)CC3)ccc2O[C@H]2CCNC2)CC1
4. CC(C)(C)c1ccc(-c2cc(C(=O)N3CCC(Oc4cc(F)cc(N5CCNCC5)c4)CC3)ccc2O[C@H]2CCNC2)cc1 [Compound 10, dihydrochloride]
5. CC(C)C(=O)N1CCC(c2cc(C(=O)N3CCC(Oc4cc(F)cc(N5CCNCC5)c4)CC3)ccc2O[C@H]2CCNC2)CC1 [Compound 22, dihydrochloride]
6. O=C(c1ccc(OC2CCNCC2)c(C2CCCCC2)c1)N1CCC(Oc2cc(F)cc(N3CCNCC3)c2)CC1

Result:
≥ 4.30
~4.08
≥ 4.70
≥ 4.70
≥ 4.30
< 4.08

Look at each compound and report its pKi.
1. O=C(c1ccc(O[C@H]2CCNC2)c(C2CCCCC2)c1)N1CCC(Oc2cc(F)cc(N3C[C@H]4CNC[C@H]4C3)c2)CC1
2. CC(C)(C)C1CCN(c2cc(C(=O)N3CCC(Oc4cc(F)cc(N5CCNCC5)c4)CC3)ccc2O[C@H]2CCNC2)CC1 [Compound 27, dihydrochloride]

Result:
1. < 4.08
2. ≥ 4.52
